Molecular target: E3 ubiquitin-protein ligase XIAP (Homo sapiens) (UniProt P98170)
Sequence (P98170 whole entry, looked up): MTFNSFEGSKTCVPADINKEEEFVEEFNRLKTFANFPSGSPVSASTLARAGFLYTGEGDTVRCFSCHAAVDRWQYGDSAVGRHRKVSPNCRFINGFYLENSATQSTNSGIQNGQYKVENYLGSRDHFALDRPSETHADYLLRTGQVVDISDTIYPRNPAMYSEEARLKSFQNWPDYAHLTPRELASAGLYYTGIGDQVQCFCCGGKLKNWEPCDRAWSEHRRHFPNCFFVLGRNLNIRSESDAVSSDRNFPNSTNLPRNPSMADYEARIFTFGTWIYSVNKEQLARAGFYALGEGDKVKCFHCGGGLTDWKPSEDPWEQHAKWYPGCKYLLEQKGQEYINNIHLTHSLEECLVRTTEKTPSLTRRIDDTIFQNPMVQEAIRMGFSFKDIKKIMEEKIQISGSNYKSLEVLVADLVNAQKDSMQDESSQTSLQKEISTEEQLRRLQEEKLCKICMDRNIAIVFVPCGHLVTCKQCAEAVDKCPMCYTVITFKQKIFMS
Test: XIAP binders, primary screen, biophysical, small-molecule microarray, fluorescence 635 nm (AID 1181);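 further: score merges 667 nm emission and signal to noise over triplicate slides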
Settings: small-molecule microarray binding, higher = more signal
Rule: satisfied for composite z-score not less than 0.2, not satisfied for anything less.

COMPOUND: COCCOC(=O)N1C(=O)[C@@]2(c3cc(C#CCCO)ccc31)[C@H](C(=O)N1CCN(c3ncccn3)CC1)[C@H]1C(=O)O[C@H](c3ccccc3)[C@H](c3ccccc3)N1[C@@H]2c1ccccc1OCCO
EXPERIMENTAL SYSTEM: E3 ubiquitin-protein ligase XIAP (Homo sapiens) (UniProt P98170)
CAT: not satisfied
//
COMPOUND: CN(C)CCCCCCNC(=O)[C@@H]1C[C@@H]2C(=O)N[C@@H](CCCCN)C(=O)N2[C@@H]1c1cccc(OCCO)c1
EXPERIMENTAL SYSTEM: E3 ubiquitin-protein ligase XIAP (Homo sapiens) (UniProt P98170)
CAT: satisfied
//
COMPOUND: COC(=O)[C@@]1(Cc2ccc(F)cc2)[C@H]2c3cc(C(=O)N(C)C)n(Cc4nc5ccccc5[nH]4)c3C[C@H]2CN1C(=O)c1ccccc1
EXPERIMENTAL SYSTEM: E3 ubiquitin-protein ligase XIAP (Homo sapiens) (UniProt P98170)
CAT: satisfied
//
COMPOUND: CC1(C)[C@@H]2CC(C(O)C3C=CC4C(=O)N(c5ccccc5)C(=O)C4N3Nc3ccccc3)=C[C@H]1C2 (some centres not stated)
EXPERIMENTAL SYSTEM: E3 ubiquitin-protein ligase XIAP (Homo sapiens) (UniProt P98170)
CAT: not satisfied
//
COMPOUND: CN1C(=O)C2C=CC(C(O)C3CC=CCC3)N(NC(=O)OC(C)(C)C)C2C1=O (configuration not stated)
EXPERIMENTAL SYSTEM: E3 ubiquitin-protein ligase XIAP (Homo sapiens) (UniProt P98170)
CAT: satisfied
//
COMPOUND: C=CCC(OC(C)=O)[C@@H]1[C@@H](N(Cc2ccc(-c3cccc(C(F)(F)F)c3)o2)C(=O)Cc2ccc(F)cc2)c2cc(OCCCO)ccc2N1C(=O)Cc1ccc(OC)cc1 (some centres not stated)
EXPERIMENTAL SYSTEM: E3 ubiquitin-protein ligase XIAP (Homo sapiens) (UniProt P98170)
CAT: not satisfied
//
COMPOUND: COc1ccc(C(O)C2C=CC3C(=O)N(c4ccccc4)C(=O)C3N2Nc2ccccc2F)cc1OCc1ccccc1 (configuration not stated)
EXPERIMENTAL SYSTEM: E3 ubiquitin-protein ligase XIAP (Homo sapiens) (UniProt P98170)
CAT: not satisfied

###

Assay: small-molecule binders of probe aLefty1, primary screen, biochemical, small-molecule microarray, 635/667 nm fluorescence (AID 1153);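 further: score merges spot fluorescence with signal-to-noise ratio from the scanned slide images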
Conditions: higher = more signal

COMPOUND: NCCCCCNC(=O)[C@@H]1C[C@@H]2C(=O)NCC(=O)N2[C@@H]1c1ccc(O)cc1
composite z-score: -0.0984
//
COMPOUND: O=C1O[C@H](c2ccccc2)[C@H](c2ccccc2)N2[C@H]1[C@@H](C(=O)O)[C@]1(C(=O)Nc3ccc(C#CC4=CCCCC4)cc31)[C@H]2c1ccccc1OCCO
composite z-score: 1.44
//
COMPOUND: [N-]=[N+]=NCc1ccccc1[C@H]1OC(c2ccc(OCCCO)cc2)=N[C@@]1(Cc1ccccc1)C(=O)NCc1ccccc1
composite z-score: 0.22
//
COMPOUND: C=CCC(OC(C)=O)[C@@H]1[C@@H](N(Cc2ccc(-c3cccc(C(F)(F)F)c3)o2)C(=O)Cc2ccc(F)cc2)c2cc(OCCCO)ccc2N1C(=O)Cc1ccc(OC)cc1 (some centres undefined)
composite z-score: -0.191
//
COMPOUND: CN1C(=O)C2C=CC(C(O)C3=C[C@H]4C[C@@H](C3)C4(C)C)N(Nc3ccccc3)C2C1=O (some centres undefined)
composite z-score: 0.202
//
COMPOUND: C=C(CCCC)C(=O)CC[C@H](OC(=O)c1cccnc1)c1ccccc1OCCO
composite z-score: -0.012
//
COMPOUND: COc1cc(CO)cc(I)c1O[C@H]1C=C(C(=O)NCCO)C[C@@H](N(CCN2CCOCC2)C(=O)C2CCOC2)[C@@H]1O (some centres undefined)
composite z-score: -0.319
//
COMPOUND: COC(=O)c1c(CC[C@@H](CO)NC(=O)N[C@@H](C)Cn2cc(C3(O)CCCCC3)nn2)oc(C(C)=O)c1C(=O)OC
composite z-score: -0.0984
//
COMPOUND: O=C1C2C=CC(C(O)c3c(F)cccc3Cl)N(Nc3ccccc3)C2C(=O)N1c1ccccc1 (centres undefined)
composite z-score: 0.547
//
COMPOUND: C=C[C@H](COC(C)=O)N(C(=O)OC(C)(C)C)S(=O)(=O)c1ccc(Br)cc1
composite z-score: 0.312
//
COMPOUND: CC(C)N1C(=O)[C@@]2(Cc3ccccc31)c1ccccc1C(=O)N(C1CCCCC1)[C@H]2c1ccc(CO)cc1
composite z-score: -0.101
//
COMPOUND: CS(=O)(=O)CCOC(=O)C1=CC(CCCO)=CC(c2ccc(CN3CCCC3)cc2)N(Cc2cc3c(cc2Br)OCO3)C=C1C(=O)OCCS(C)(=O)=O (centres undefined)
composite z-score: 0.485
//
COMPOUND: C=CCN(Cc1ccccc1)C(=O)C(c1cccs1)N(CCOCCO)C(=O)/C=C\C(=O)O (centres undefined)
composite z-score: -0.191
//
COMPOUND: CN1C(=O)[C@]2(Cc3ccccc3)N=C(c3ccc(OCCCO)cc3)O[C@@H]2c2ccccc21
composite z-score: -0.157
//
COMPOUND: O=C(NCc1ccccc1)[C@@H]1c2ccccc2C(=O)N(CC23CC4CC(CC(C4)C2)C3)[C@H]1c1ccc(CO)cc1
composite z-score: -0.538
//
COMPOUND: COc1ccc(C(=O)Nc2ccc(CN3C(=O)[C@@]4(O[C@@H](CC(=O)N5CCC[C@H]5CO)[C@H]([Si](C)(C)c5ccc(OC)cc5)[C@H]4C)c4ccccc43)cc2)cc1
composite z-score: 0.138
//
COMPOUND: CN(C)C(=O)[C@@]1(Cc2ccccc2)N=C(c2ccc(OCCCO)cc2)O[C@H]1c1ccccc1N=[N+]=[N-]
composite z-score: 0.737
//
COMPOUND: O=C1O[C@H](c2ccccc2)[C@H](c2ccccc2)N2[C@H]1[C@@H](C(=O)NC[C@H](O)c1ccccc1)[C@]1(C(=O)Nc3ccccc31)[C@H]2c1ccc(OCCO)cc1
composite z-score: 0.159
//
COMPOUND: COc1ccc(COC2OC[C@]3(C)[C@H]4C5=C(CN3C(=O)OC(C)(C)C)[C@H](C)C(CO)C(CO)C5CC[C@@H]24)cc1 (some centres undefined)
composite z-score: 0.638
//
COMPOUND: CCCC[C@@H]1C[C@H]1[C@@H](NC(=O)c1ccco1)c1ccc(C(=O)OC)cc1
composite z-score: -0.214
//
COMPOUND: C=C(/C(=C/C[C@@H](OC(C)=O)c1ccc(OCCO)cc1)c1cnc2ccccc2c1)C(C)C
composite z-score: -0.342
//
COMPOUND: Cc1ccc(S[C@]2(C(=O)NC(C)C)CC(=O)N(Cc3ccccc3Cl)[C@@H]2c2ccc(CO)cc2I)cc1
composite z-score: 0.0023
//
COMPOUND: CCOC(=O)[C@H]1C/C=C/C[C@H](C(=O)OCC)C(=O)O[C@H]2[C@@H](OC)O[C@H](CO)[C@@H](OC(=O)Nc3cccc(F)c3)[C@@H]2OC1=O
composite z-score: 1.53
//
COMPOUND: COc1ccc(C(=O)Nc2cccc(CN3C(=O)[C@]4(O[C@H](CCO)[C@@H]([Si](C)(C)c5ccc(OC)cc5)[C@@H]4C)c4ccccc43)c2)cc1
composite z-score: 0.0698
//
COMPOUND: COC(=O)[C@@]1(Cc2ccc(F)cc2)[C@@H]2[C@@H](CC(=O)[C@H]2CC(=O)C(=O)N(C)C)CN1C(=O)c1ccccc1
composite z-score: 0.334
//
COMPOUND: O=C(O)[C@@]1(CCS(=O)(=O)c2ccccc2)COC(c2ccc(OCCCO)cc2)=N1
composite z-score: -0.0601
//
COMPOUND: CC(=O)N1Cc2ccccc2C[C@@]2(COC(c3ccc(OCCCO)cc3)=N2)C1=O
composite z-score: 0.611
//
COMPOUND: COc1ccc([Si](C)(C)[C@H]2[C@H](CCn3cc([C@H](O)c4ccccc4)nn3)O[C@@]3(C(=O)N(Cc4cccc(N5CCOC5=O)c4)c4ccccc43)[C@@H]2C)cc1
composite z-score: -0.249
//
COMPOUND: C=CCNC(=O)[C@@H]1[C@H]2C(=O)O[C@H](c3ccccc3)[C@H](c3ccccc3)N2[C@H](c2ccc(OCCO)cc2)[C@@]12C(=O)Nc1ccc(C#Cc3ccc(OC)cc3)cc12
composite z-score: 0.498
